molecular target: Cytochrome P450 2C19 (Homo sapiens); experiment: blockers of cytochrome P450 2C19 activity – biochemical, luminescence, ADME assay, primary screen (AID 778); conditions: CYP2C19 Supersomes, luciferin-H EGE luminescence, 30 min; at 5 µM; hits give high values;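 note: plate controls were negative control wells for no effect and 2.5 mM tranylcypromine positive control for full effect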
In all, about 96,000 compounds went through this assay and about 20,000 (21%) were called active. Only a sample is shown.
Assignment: determine reported inhibition for the given molecules.
Answers are plain numbers, in %.

The following molecules have reported results that may help.
Please give the documented inhibition of "CCC(=NCc1ccco1)c1c(O)n(Cc2ccccc2)c(=O)[nH]c1=O" 49.6

Please give the documented inhibition of "O=C(c1cc(S(=O)(=O)N2CCOCC2)ccc1F)N1CCC2(CC1)OCCO2" -8

Please give the documented inhibition of COc1ccc(C(=O)C2CN(C)CC2C(=O)c2ccc(OC)cc2)cc1 (configuration not stated) 8.9

Please give the documented inhibition of "CN1CCC(N(C)Cc2cccnc2)CC1" -0.7

Please give the documented inhibition of c1ccc2sc(C3CCCNC3)nc2c1 (configuration not stated) -18.4

Provide inhibition for all items below, preserving their order.
1. CN1CCN(Cc2ccccc2C(F)(F)F)CC1
2. COc1ccccc1-n1c(O)c(C=NC2CC2)c(=O)[nH]c1=O
3. CC(=O)c1c(O)n(C2CCCCCC2)c(=O)[nH]c1=O
4. Cc1ccc(N(C)C(=O)Oc2cccc3ccc(C)nc23)cc1
5. Cc1ccc(P(=S)(c2ccc(C)o2)N2CCOCC2)o1
6. Cn1c(O)c(C=NCCCC(=O)O)c(=O)n(C)c1=O

1: 7.9; 2: 42.1; 3: 27; 4: 55.4; 5: 36.5; 6: -13.4

Please give the documented inhibition of "Cn1c(O)c(C=Nc2ccc3c(c2)CCC3)c(=O)n(C)c1=O" 31.3

----------
target: Cytochrome P450 2C19 (Homo sapiens); experiment: blockers of cytochrome P450 2C19 activity – biochemical, luminescence, ADME assay, primary screen (AID 778); conditions: CYP2C19 Supersomes, luciferin-H EGE luminescence, 30 min; at 5 µM;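 note: plate controls were negative control wells for no effect and 2.5 mM tranylcypromine positive control for full effect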
Among all 96,000 compounds or so, about 20,000 (21%) were called active.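 Rule for the calls: active = CYP2C19 inhibition above a set limit at 5 µM in the primary screen (cut at about 50% in these data); inactive = the rest.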 Not all results are given here.
Tick one outcome: active, inactive

I would be grateful if you could indicate the recorded call for "CC1(C)C(c2ccccc2)=NC(c2cccnc2)=[N+]1[O-]" . inactive

I would be grateful if you could indicate the recorded call for "Fc1ccc(N2CCN(Cc3ccc4c(c3)OCO4)CC2)cc1" . inactive

Next:
I would be grateful if you could indicate the recorded call for "CCN(CC)P(=O)(Oc1cccc(C)c1)N(CC)CC" . active

Ref: PubChem BioAssay AID778
